# Test system: 885512-296-R-J2-PDC complex spheroid viability;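 note: spheroids exposed to the compounds for one week; percent of tumor spheroid viability relative to DMSO vehicle control wells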
# Measurement protocol: Anticancer human tumor 885512-296-R-J2-PDC patient-derived breast carcinoma cell line growth inhibition [GQUAD]; active = viability on the fitted dose curve at most 10% of control; inactive = the rest
# Particulars: second compound 0.1 µM; first compound 0.316 µM
Valid outcomes are listed here; reply with one: 1 (active), 0 (inactive)

Compound: O=C(c1cc(Cc2n[nH]c(=O)c3ccccc23)ccc1F)N1CCN(C(=O)C2CC2)CC1 + CN(C)c1ccc(Nc2c3ccc(NC(=O)CCN4CCCC4)cc3nc3cc(NC(=O)CCN4CCCC4)ccc23)cc1
Cat: 0

Compound: O=c1[nH]cc(F)c(=O)[nH]1 + Cc1[nH]c2ccc(F)cc2c1-c1nc2c3cccnc3c3ncccc3c2[nH]1
Cat: 0

Compound: O=C(NO)c1cnc(N2CCN(S(=O)(=O)c3ccc4ccccc4c3)CC2)nc1 + Cc1cnc(CNC(=O)c2c(=O)c3ccc(N4CCCN(C)CC4)nc3n3c2sc2ccccc23)cn1
Cat: 0

Compound: Cn1ncnc1[C@H]1c2n[nH]c(=O)c3cc(F)cc(c23)N[C@@H]1c1ccc(F)cc1 + CN(C)c1ccc(Nc2c3ccc(NC(=O)CCN4CCCC4)cc3nc3cc(NC(=O)CCN4CCCC4)ccc23)cc1
Cat: 0

Compound: CCCS(=O)(=O)Nc1ccc(F)c(C(=O)c2c[nH]c3ncc(-c4ccc(Cl)cc4)cc23)c1F + CN(C)c1ccc(Nc2c3ccc(NC(=O)CCN4CCCC4)cc3nc3cc(NC(=O)CCN4CCCC4)ccc23)cc1
Cat: 0

Fill in: this test's call for CC(=O)O[C@H]1C(=O)[C@@]2(C)[C@H]([C@H](OC(=O)c3ccccc3)[C@]3(O)C[C@H](OC(=O)[C@H](O)[C@@H](NC(=O)c4ccccc4)c4ccccc4)C(C)=C1C3(C)C)[C@]1(OC(C)=O)CO[C@@H]1C[C@@H]2O + Cc1[nH]c2ccc(F)cc2c1-c1nc2c3cccnc3c3ncccc3c2[nH]1 is ___
0

Fill in: this test's call for O=c1[nH]cc(F)c(=O)[nH]1 + Cc1cnc(CNC(=O)c2c(=O)c3ccc(N4CCCN(C)CC4)nc3n3c2sc2ccccc23)cn1 is ___
0

Fill in: this test's call for Nc1ccn(C2OC(CO)C(O)C2(F)F)c(=O)n1 (stereo unspecified) + Cc1cnc(CNC(=O)c2c(=O)c3ccc(N4CCCN(C)CC4)nc3n3c2sc2ccccc23)cn1 is ___
1
